Test system: SK-MEL-5 melanoma
Assay: NCI tumour cell line growth inhibition, 384-well format
Parameter: GI50. Scope: all listed entries.

Recorded GI50, per entry:
Cc1cc(Nc2ncc(Cl)c(Nc3ccccc3S(=O)(=O)C(C)C)n2)c(OC(C)C)cc1C1CCNCC1 ... 668 nM
CCOC(=O)c1ccc2[nH]c(Cc3[nH]c4ccc(C(=O)OCC)cc4c3C)c(C)c2c1 ... 1230 nM
CNC(=O)c1ccc(Nc2nc(OC3CCCC3)c3c(-c4ccc5nc(C)oc5c4)c[nH]c3n2)c(OC)c1 ... 73.5 nM

Could you now consider this next compound?
// query # get_value(readout='GI50', item= Cc1c(N(C(=O)c2cc(-c3cc(Cl)ccc3C(=O)N3Cc4ccccc4C[C@H]3CN3CCOCC3)n(C)c2C)c2ccc(O)cc2)cc(C#N)n1C )
// result 9040 nM
